Measured values drawn from patent US20160376343A1 for this set.

assay_target: T1, hIL-17A (human, UniProt Q16552 24-155)
T1 construct: Bought protein
T1 sequence (Q16552 24-155 limits assumed): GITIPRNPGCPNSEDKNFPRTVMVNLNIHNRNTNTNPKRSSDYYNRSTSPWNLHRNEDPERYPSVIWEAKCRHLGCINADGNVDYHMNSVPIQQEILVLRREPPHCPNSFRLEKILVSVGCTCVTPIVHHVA
assay_text: ELISA on captured hIL-17A
reported_endpoint: IL-17A binding relative to the WT
Report the figure along with its unit, number first.

Query string: Given the binder V3M V268A (Fc fusion, Expressed in mammalian cells; also called V3 V268A; not shown: human IgG1 engineered Fc from the mammalian expression vector) LRLLDHRAPVCSQPGLNCTVKNSTCLDDSWIHPRNLTPSSPKDLQIQLHFAHTQQGDLFPVAHIEWTLQTDASILYLEGAELSVLQLNTNERLCVRFEFLSKLRHHHKRWRFTFSHFVVDPGQEYEVTVHHLPKPIPDGDPNHQSKNFLVPDCEDARMKVTTPCMSSGSLWDPNITVETLEAHQLRVSFTLWNESTHYQILLTSFPHMENHSCFEHMHHIPAPRPEEFHQRSNVTLTLRNLKWCCRHQVQIQPFFSSCLNDCLRHSATVSCPEMPDTPEPIPDYMPLW , write its reported IL-17A binding relative to the WT.
Result string: 80%
